Values were extracted from patent US10093630B2.

- Tested System: PLA2G7 (Mus musculus, UniProt Q60963)
- Construct: Proteomes (mouse brain membrane fraction or cell lysates); from tissue; host or cells: mouse brain membrane fraction (or cell lysates, not specified)
- Sequence (Q60963 22-440): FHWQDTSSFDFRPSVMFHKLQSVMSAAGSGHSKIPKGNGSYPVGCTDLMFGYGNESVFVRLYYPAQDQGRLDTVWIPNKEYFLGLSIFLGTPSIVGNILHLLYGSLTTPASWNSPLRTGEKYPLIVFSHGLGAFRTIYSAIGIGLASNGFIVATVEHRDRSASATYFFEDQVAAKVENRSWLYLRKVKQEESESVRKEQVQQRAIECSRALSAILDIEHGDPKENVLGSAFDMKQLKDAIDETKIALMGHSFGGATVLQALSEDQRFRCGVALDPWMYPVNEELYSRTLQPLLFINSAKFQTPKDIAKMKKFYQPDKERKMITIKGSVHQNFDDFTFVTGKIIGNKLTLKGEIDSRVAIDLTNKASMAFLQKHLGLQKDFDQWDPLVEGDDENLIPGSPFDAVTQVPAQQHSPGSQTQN
- Protocol Description: In vitro competitive activity-based protein profiling (gel-based, FP-Rh or HT-01 probe)
- Assay type: biochemical
- Condition Details: 10 μM inhibitor; read-out: % Inhibition at 10 μM, D = PLA2G7
Measured Parameter: inhibition at 10 µM

O=C(N1CCN(CC2CC2)CC1)n1cc(Cl)cn1	> 75%
O=C(N1CCN(Cc2ccc(OCc3ccccc3)cc2)CC1)n1cccn1	< 25%
Cc1cc(-c2ccccc2)ccc1CN1CCN(C(=O)n2cc(C(F)(F)F)cn2)CC1	> 75%
O=C(N1CCCCC1)n1cc(C(F)(F)F)cn1	> 75%
CN1CCCN(C(=O)n2cc(C(F)(F)F)cn2)CC1	> 75%

QUERY: Can you share its inhibition at 10 µM? I mean this compound: O=C(N1CCN(Cc2ccccc2)CC1)n1cccn1
RESULT: < 25%

###

Reported inhibition at 10 µM is given for each of the following compounds.
- Tested System: FAAH (Mus musculus)
- Construct: Proteomes (mouse brain membrane fraction or cell lysates); from tissue; host or cells: mouse brain membrane fraction (or cell lysates, not specified)
- Sequence (O08914 1-579): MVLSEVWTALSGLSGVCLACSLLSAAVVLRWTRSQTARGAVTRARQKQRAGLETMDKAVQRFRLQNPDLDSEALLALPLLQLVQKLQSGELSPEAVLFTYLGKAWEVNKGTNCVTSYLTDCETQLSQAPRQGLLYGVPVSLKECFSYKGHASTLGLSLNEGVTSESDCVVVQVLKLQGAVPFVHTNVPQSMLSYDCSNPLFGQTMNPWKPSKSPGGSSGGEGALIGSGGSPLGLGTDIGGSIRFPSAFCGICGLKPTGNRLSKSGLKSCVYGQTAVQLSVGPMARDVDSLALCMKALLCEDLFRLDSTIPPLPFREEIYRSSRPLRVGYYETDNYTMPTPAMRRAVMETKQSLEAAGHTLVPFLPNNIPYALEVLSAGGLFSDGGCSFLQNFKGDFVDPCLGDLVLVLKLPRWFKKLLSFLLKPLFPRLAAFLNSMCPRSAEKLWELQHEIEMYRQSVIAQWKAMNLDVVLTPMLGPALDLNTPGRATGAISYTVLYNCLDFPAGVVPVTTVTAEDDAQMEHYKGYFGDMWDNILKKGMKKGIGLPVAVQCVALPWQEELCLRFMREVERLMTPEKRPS
- Protocol Description: In vitro competitive activity-based protein profiling (gel-based, FP-Rh or HT-01 probe)
- Type: biochemical
- Condition Details: 10 μM inhibitor; read-out: % Inhibition at 10 μM, B = FAAH

Cc1cc(N2CCN(C(=O)n3cc(C#N)cn3)CC2)c2ccccc2n1 [Example 209]	> 75%
Cc1cnn(C(=O)N2CCCN(S(C)(=O)=O)CC2)c1 [Example 166]	< 25%
Cc1cc(N2CCN(C(=O)n3cc(Cl)cn3)CC2)c2ccccc2n1 [Example 208]	> 75%
Cc1cnn(C(=O)N2CCN(C)CC2)c1 [Example 163]	< 25%
O=C(c1cnn(C(=O)N2CCN(Cc3cncnc3)CC2)c1)N1CCCC1 [Example 84]	< 25%
Cc1cc(-c2ccccc2)ccc1CN1CCN(C(=O)n2cc(Cl)cn2)CC1 [Example 137]	> 75%

QUERY: Value lookup for inhibition at 10 µM; key = O=C(c1cnn(C(=O)N2CCN(Cc3ccncc3)CC2)c1)N1CCCCC1 [Example 70]
RESULT: 25 to 75%

QUERY: Recorded inhibition at 10 µM for O=C(N1CCN(Cc2cncnc2)CC1)n1cc(-c2ccccc2)cn1 [Example 64] , please?
RESULT: < 25%

QUERY: Fill in the blank: the reported inhibition at 10 µM of Cc1cnn(C(=O)N2CCCN(C(=O)c3ccccc3)CC2)c1 [Example 169] is ____.
RESULT: < 25%

###

- Tested System: MAGL (Mus musculus, UniProt O35678)
- Construct: Proteomes (mouse brain membrane fraction or cell lysates); from tissue; host or cells: mouse brain membrane fraction (or cell lysates, not specified)
- Sequence (O35678 whole entry): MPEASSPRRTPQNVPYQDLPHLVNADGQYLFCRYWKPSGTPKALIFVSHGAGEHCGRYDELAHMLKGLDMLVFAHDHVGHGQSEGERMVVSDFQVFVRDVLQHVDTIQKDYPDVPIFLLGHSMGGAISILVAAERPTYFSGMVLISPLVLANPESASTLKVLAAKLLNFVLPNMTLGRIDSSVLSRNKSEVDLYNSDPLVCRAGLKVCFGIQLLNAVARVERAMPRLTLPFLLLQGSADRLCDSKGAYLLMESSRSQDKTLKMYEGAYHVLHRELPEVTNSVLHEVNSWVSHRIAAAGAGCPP
- Protocol Description: In vitro competitive activity-based protein profiling (gel-based, FP-Rh or HT-01 probe)
- Type: biochemical
- Condition Details: 1 μM inhibitor; gel-based competitive ABPP
Measured Parameter: inhibition at 1 µM

QUERY: Any idea what inhibition at 1 µM was measured for O=C(N1CCN(Cc2cccc(C(F)(F)F)c2)CC1)n1cc(C(F)(F)F)cn1 ?
RESULT: > 75%

QUERY: // returns reported inhibition at 1 µM for input CCN(Cc1cccc(C)c1)C(=O)n1cc(C#N)cn1
RESULT: > 75%

QUERY: Tell me the measured inhibition at 1 µM of CCN(Cc1cccc(N2CCOCC2)c1)C(=O)n1cc(C(F)(F)F)cn1 , please.
RESULT: 25 to 75%

QUERY: Reported inhibition at 1 µM, compound CCN(Cc1ccc(N2CCOCC2)cc1)C(=O)n1cc(C(F)(F)F)cn1 : ____
RESULT: > 75%

QUERY: Recorded inhibition at 1 µM for COc1cc(-c2ccccc2)ccc1CN1CCN(C(=O)n2cc(C(=O)N3CCCC3)cn2)CC1 , please?
RESULT: > 75%

QUERY: Given the entry Cc1cnn(C(=O)N2CCN(Cc3cccc(OCc4ccccc4)c3)CC2)c1 , report its measured inhibition at 1 µM.
RESULT: > 75%

QUERY: Can you look up the measured inhibition at 1 µM of N#Cc1cnn(C(=O)N2CCN(Cc3cccc(Oc4ccccc4)c3)CC2)c1 for me?
RESULT: > 75%

###

- Tested System: MAGL (Mus musculus, UniProt O35678)
- Construct: Proteomes (mouse brain membrane fraction or cell lysates); from tissue; host or cells: mouse brain membrane fraction (or cell lysates, not specified)
- Protocol Description: In vitro competitive activity-based protein profiling (gel-based, FP-Rh or HT-01 probe)
- Format: biochemical
- Condition Details: 10 μM inhibitor
Measured Parameter: inhibition at 10 µM

Worked set:
CN(Cc1cccc(-c2ccncc2)c1)C(=O)n1cc(C(F)(F)F)cn1 [Example 222]	> 75%
O=C(N1CCN(c2ccc(N3CCOCC3)cc2)CC1)n1cc(C(F)(F)F)cn1 [Example 238]	> 75%
Cc1ccc(-c2cnn(C(=O)N3CCCC3)c2)cc1 [Example 104]	< 25%
CS(=O)(=O)N1CCN(C(=O)n2cc(Cl)cn2)CC1 [Example 184]	< 25%
N#Cc1cnn(C(=O)N2CCCC2)c1 [Example 203]	> 75%

QUERY: Quick one: inhibition at 10 µM for O=C(c1cnn(C(=O)N2CCN(Cc3ccncc3)CC2)c1)N1CCC1 [Example 87] ?
RESULT: < 25%

QUERY: inhibition at 10 µM lookup needed for N#Cc1cnn(C(=O)N2CCCCC2)c1 [Example 3] , thanks.
RESULT: > 75%

QUERY: What does the record list as inhibition at 10 µM for O=C(c1cnn(C(=O)N2CCN(Cc3ccncc3)CC2)c1)N1CCCC1 [Example 79] ?
RESULT: < 25%

QUERY: Name the reported inhibition at 10 µM value associated with the compound CC(C)(C)OC(=O)N1CCN(C(=O)n2cc(C#N)cn2)CC1 [Example 6]
RESULT: > 75%

QUERY: I'd like to know its inhibition at 10 µM. The compound in question is O=C(N1CCCC1)n1cc(-c2ccccc2)cn1 [Example 103]
RESULT: < 25%

QUERY: Recorded inhibition at 10 µM for O=C(N1CCN(Cc2c(N3CCCC3)cccc2C(F)(F)F)CC1)n1cc(F)cn1 [Example 113] , please?
RESULT: > 75%

QUERY: Could you tell me which inhibition at 10 µM is on file for O=C(N1CCN(Cc2nccs2)CC1)n1cc(-c2ccccc2)cn1 [Example 63] ?
RESULT: < 25%

QUERY: May I ask what inhibition at 10 µM has been recorded for O=C(NCCCCCc1ccccc1)n1cccn1 [Example 37] ?
RESULT: < 25%

QUERY: Recorded inhibition at 10 µM of N#Cc1cnn(C(=O)N2CCN(Cc3ccc(Oc4ccccc4)cc3)CC2)c1 [Example 18] , please.
RESULT: > 75%

QUERY: I'd like to know its inhibition at 10 µM. The compound in question is O=C(N1CCN(C(c2ccc(Cl)cc2)c2ccc(Cl)cc2)CC1)n1cc(C(F)(F)F)cn1 [Example 118]
RESULT: > 75%

QUERY: Record request: inhibition at 10 µM value, item O=C(c1cnn(C(=O)N2CCN(Cc3ccc4c(c3)OCO4)CC2)c1)N1CCC1 [Example 86]
RESULT: > 75%

QUERY: Please look up its inhibition at 10 µM: O=C(N1CCN(c2ccc(N3CCCC3)cc2)CC1)n1cc(C(F)(F)F)cn1 [Example 241]
RESULT: > 75%

QUERY: For the compound shown here, Cc1cnn(C(=O)N2CCCN(C(=O)OC(C)(C)C)CC2)c1 [Example 26] , give the reported inhibition at 10 µM.
RESULT: 25 to 75%

QUERY: Consider the compound shown here: CCN(Cc1ccccc1OC)C(=O)n1cc(Cl)cn1 [Example 127] What is its recorded inhibition at 10 µM?
RESULT: > 75%
